experiment: recombinant barcode read abundance after kanamycin selection (control-corrected) (log10(CPM+1)); higher = more efficient recombination; sequences stand for … in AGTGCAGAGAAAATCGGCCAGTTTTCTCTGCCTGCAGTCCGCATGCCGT…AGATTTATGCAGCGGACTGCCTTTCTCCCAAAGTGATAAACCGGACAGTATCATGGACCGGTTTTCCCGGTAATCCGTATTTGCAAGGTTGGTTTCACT; site = the 11-nt target
measurementLabel: recombinant barcode read abundance (log10)

The examples below pair each entry with its known result.
TGTAGAGCTTGGGTTCTAACCTGTTGCCG (site TGTTGAGCTCG)	0.258
GTAAAACCTTGGGTTCTAACCTGTTGCCT (site CTAAAACCTAG)	0.23
TCACGTGCTTGGGTTCTAACCTGTTGCCT (site TCACTTGCTAG)	0.121
CTCGACCCTTGGGTTCTAACCTGTTGCAT (site CTCGACCCTAT)	2.4

Consider the additional sequence presented here.
Fill in recombinant barcode read abundance (log10) for record GGAGGTCCTTGGGTTCTAACCTGTTGCCG (site GGAGGTCCTCG)
1.79

###

# maps each entry to its recombinant barcode read abundance (log10)
assay: recombinant barcode read abundance after kanamycin selection (control-corrected) (log10(CPM+1)); higher = more efficient recombination; sequences stand for … in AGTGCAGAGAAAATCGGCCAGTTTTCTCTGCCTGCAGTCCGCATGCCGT…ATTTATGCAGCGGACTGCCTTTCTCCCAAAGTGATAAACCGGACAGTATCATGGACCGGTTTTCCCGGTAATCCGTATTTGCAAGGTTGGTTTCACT; site = the 11-nt target
// return just the number, without any unit appended

CGAGCCCTATGGGTTCTAACCTGTTGCTGTA [CGAGCCCCTCA_LTGcore_TA_RTGcore_TA] (site CGAGCCCCTCA) (LTG core: TA, RTG core: TA)	0.083
GGGCGTGCTTGGGTTCTAACCTGTTGCCTCT [GGGCGTGCTAG_LTGcore_CT_RTGcore_AG] (site GGGCGTGCTAG) (LTG core: CT, RTG core: AG)	0.831
GAGCCCAATTGGGTTCTAACCTGTTGCCTAG [GAGCCCACTAG_LTGcore_AT_RTGcore_CT] (site GAGCCCACTAG) (LTG core: AT, RTG core: CT)	0.204

Tell me recombinant barcode read abundance (log10) reported for TAGAGGGAATGGGTTCTAACCTGTTGCGGAG [TAGAGGGCTCC_LTGcore_AA_RTGcore_CT] (site TAGAGGGCTCC) (LTG core: AA, RTG core: CT)
0.247

Provide only the value of recorded recombinant barcode read abundance (log10) for TCTACCCCTTGGGTTCTAACCTGTTGCTGCA [TCTACCCCTCA_LTGcore_CT_RTGcore_TG] (site TCTACCCCTCA) (LTG core: CT, RTG core: TG)
0.217

Give the value of recombinant barcode read abundance (log10) reported for the following: CGGTCCCATTGGGTTCTAACCTGTTGCCAAT [CGGTCCCCTTG_LTGcore_AT_RTGcore_AT] (site CGGTCCCCTTG) (LTG core: AT, RTG core: AT)
0.494

Note down recombinant barcode read abundance (log10) recorded for GGGAGCCCTTGGGTTCTAACCTGTTGCTGAA [GGGAGCCCTCA_LTGcore_CT_RTGcore_TT] (site GGGAGCCCTCA) (LTG core: CT, RTG core: TT)
0.138

Retrieve recombinant barcode read abundance (log10) measured for CGGTCCCCTTGGGTTCTAACCTGTTGCCAGG [CGGTCCCCTTG_LTGcore_CT_RTGcore_CC] (site CGGTCCCCTTG) (LTG core: CT, RTG core: CC) and print it.
0.129

Provide measured recombinant barcode read abundance (log10) value, entry: GAGGCCTCATGGGTTCTAACCTGTTGCCAAG [GAGGCCTCTTG_LTGcore_CA_RTGcore_CT] (site GAGGCCTCTTG) (LTG core: CA, RTG core: CT)
0.318

Tell me recombinant barcode read abundance (log10) reported for GGGCGGACTTGGGTTCTAACCTGTTGCGGTG [GGGCGGACTCC_LTGcore_CT_RTGcore_CA] (site GGGCGGACTCC) (LTG core: CT, RTG core: CA)
0.17

Item GGGCGGACTTGGGTTCTAACCTGTTGCGGCT [GGGCGGACTCC_LTGcore_CT_RTGcore_AG] (site GGGCGGACTCC) (LTG core: CT, RTG core: AG) : provide recombinant barcode read abundance (log10)
0.292

###

assay: recombinant UMI read abundance after kanamycin selection (control-corrected) (log10(CPM+1)); higher = more efficient recombination; extreme values may be limits of the assay; sequences stand for … in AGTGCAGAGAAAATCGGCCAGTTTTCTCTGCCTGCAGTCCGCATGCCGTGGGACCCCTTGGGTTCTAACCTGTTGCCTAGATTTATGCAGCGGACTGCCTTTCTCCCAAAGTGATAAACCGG…AGGTTGGTTTCACT; site = the 11-nt donor
measurementLabel: recombinant UMI read abundance (log10)
# answer = number (no unit)

AAGCGCTCATGGACCGGTTTTCCCGGTAATCCGTATTTGCG (site AAGCGCTCTCG)	2.26
CCCGGTCCATGGACCGGTTTTCCCGGTAATCCGTATTTGCG (site CCCGGTCCTTG)	0
CAGTCCACATGGACCGGTTTTCCCGGTAATCCGTATTTGGG (site CAGTCCACTCC)	0.00714
CAAATCACATGGACCGGTTTTCCCGGTAATCCGTATTTGGG (site CAACTCACTCC)	0.02
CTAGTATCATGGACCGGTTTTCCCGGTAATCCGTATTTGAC (site GTAGTGTCTGT)	0.0419
TCAGTGACATGGACCGGTTTTCCCGGTAATCCGTATTTGCG (site TCAGAGACTCG)	0.0602
TCGAAAACATGGACCGGTTTTCCCGGTAATCCGTATTTGCT (site TCGAAAACTAG)	0
CAATTCCCATGGACCGGTTTTCCCGGTAATCCGTATTTGCT (site CAATTACCTAG)	0

Item ATCTATACATGGACCGGTTTTCCCGGTAATCCGTATTTGAC (site AACTATACTGT) : provide recombinant UMI read abundance (log10)
0.0062

Look up and report measured recombinant UMI read abundance (log10) for this entry: ACTCTAGCATGGACCGGTTTTCCCGGTAATCCGTATTTGCC (site ACTCTAGCTGG)
0

For the sequence TTGAATCCATGGACCGGTTTTCCCGGTAATCCGTATTTGGA (site TTGAATCCTTC) , give its reported recombinant UMI read abundance (log10).
0.123

Assign recombinant UMI read abundance (log10) to the following record: CTGGAAACATGGACCGGTTTTCCCGGTAATCCGTATTTGCA (site CTGGAAACTTG)
2.2

Determine its reported recombinant UMI read abundance (log10): CCAGTATCATGGACCGGTTTTCCCGGTAATCCGTATTTGCA (site ACAGTATCTTG)
1.07

Look up recombinant UMI read abundance (log10) of GACACACCATGGACCGGTTTTCCCGGTAATCCGTATTTGGT (site GACAAACCTAC) and report it.
0

Look up recombinant UMI read abundance (log10) of ATAAGGCCATGGACCGGTTTTCCCGGTAATCCGTATTTGTC (site ATAAGGCCTGA) and report it.
1.94

Name the recorded recombinant UMI read abundance (log10) of the item CCCGCTCCATGGACCGGTTTTCCCGGTAATCCGTATTTGCA (site CCCGTTCCTTG) in your answer.
0

###

test: recombinant barcode read abundance after kanamycin selection (control-corrected) (log10(CPM+1)); higher = more efficient recombination; sequences stand for … in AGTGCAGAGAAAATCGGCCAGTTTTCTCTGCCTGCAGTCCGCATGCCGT…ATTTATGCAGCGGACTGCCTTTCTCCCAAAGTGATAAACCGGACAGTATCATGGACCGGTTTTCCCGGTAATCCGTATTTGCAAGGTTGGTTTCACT; site = the 11-nt target
Label condition met when recombinant barcode read abundance (log10) is at or above 0.1; anything below gets condition not met.

Take a look at these entries with their results.
GGTGCCCGCTGGGTTCTAACCTGTTGCCGAG [GGTGCCCCTCG_LTGcore_GC_RTGcore_CT] (site GGTGCCCCTCG) (LTG core: GC, RTG core: CT)	condition not met
AAACACACTTGGGTTCTAACCTGTTGCCTCG [AAACACACTAG_LTGcore_CT_RTGcore_CG] (site AAACACACTAG) (LTG core: CT, RTG core: CG)	condition met
CGCGCCCCTTGGGTTCTAACCTGTTGCGGTG [CGCGCCCCTCC_LTGcore_CT_RTGcore_CA] (site CGCGCCCCTCC) (LTG core: CT, RTG core: CA)	condition met
CGCGCCCTATGGGTTCTAACCTGTTGCGGTA [CGCGCCCCTCC_LTGcore_TA_RTGcore_TA] (site CGCGCCCCTCC) (LTG core: TA, RTG core: TA)	condition not met
CGAGCCCCATGGGTTCTAACCTGTTGCTGTG [CGAGCCCCTCA_LTGcore_CA_RTGcore_CA] (site CGAGCCCCTCA) (LTG core: CA, RTG core: CA)	condition met
GGACACCCTTGGGTTCTAACCTGTTGCCTTC [GGACACCCTAG_LTGcore_CT_RTGcore_GA] (site GGACACCCTAG) (LTG core: CT, RTG core: GA)	condition met
ATGTCCCCCTGGGTTCTAACCTGTTGCTCAG [ATGTCCCCTGA_LTGcore_CC_RTGcore_CT] (site ATGTCCCCTGA) (LTG core: CC, RTG core: CT)	condition met
TCTACCCTTTGGGTTCTAACCTGTTGCTGAA [TCTACCCCTCA_LTGcore_TT_RTGcore_TT] (site TCTACCCCTCA) (LTG core: TT, RTG core: TT)	condition not met

# bool: recombinant barcode read abundance (log10) of CGGTCCCCTTGGGTTCTAACCTGTTGCCAGT [CGGTCCCCTTG_LTGcore_CT_RTGcore_AC] (site CGGTCCCCTTG) (LTG core: CT, RTG core: AC) >= 0.1
condition met
